system: K-562 leukemia; experiment: NCI-60 one-dose screen, 48 h (100 = growth as untreated, 0 = no growth, -100 = all killed); details: 10 µM unless noted
Compounds without any hit were thinned out: in the full panel of roughly 83,000, 20% have a hit.
hey, just use condition met if measured growth is less than 60%, otherwise condition not met

Field: example entries. Status: answers known.
* COc1ccc(-c2cc(-c3cc(OC)c(OC)c(OC)c3)c(C#N)c(=O)n2CCCCC(=O)NO)cc1 | condition met
* CC(C)c1ccc(C(=O)Nc2sc3c(c2C(N)=O)CCC(=O)C3)cc1 | condition met
* CCOC(=O)NC(C)C | condition not met
* CCCCNCCCCCNc1cc(OC)cc2cccnc12 | condition not met
* O=C(OC(CO)C(=O)NC12CC3CC(CC(C3)C1)C2)c1ccc(Cl)cc1 (stereo unspecified) | condition not met

Data request: Would you kindly verify if growth of `COc1ccc(/C=C/C(=O)c2cc3c(N)c(C(=O)Nc4cccc5ccccc45)sc3nc2C)cc1` is strictly less than 60%?
Data returned: condition met

Data request: Find out if reported growth for `Cc1ccc(C(=O)c2ccc(CC(=O)N/N=C/c3ccccc3O)n2C)cc1` is less than 60%
Data returned: condition not met

Data request: Determine whether this compound shows growth lower than 60% (ties excluded): `Cn1c(=O)cc2c3c(c(NCCCO)ccc31)C(=O)c1ccccc1-2`
Data returned: condition met

Data request: Threshold test, growth < 60%: `CCCCCOC(=O)c1c(C)[nH]c(/C=C2\N=C(c3ccc[nH]3)C=C2OC)c1C`
Data returned: condition met

Data request: Does `CCOC(=O)c1c2c(n3cccc(F)c13)C(=O)c1ncccc1C2=O` have growth strictly under 60%?
Data returned: condition met

Data request: I wonder whether `CN(C)c1ccc(-c2c(C#N)c(N)nn2C(=O)c2ccc(NC(=O)c3ccccn3)cc2)cc1` has growth below 60%. Can you tell?
Data returned: condition not met

Data request: Does the reported growth of the following compound sit strictly below 60%? O=C1NC(=O)C(Cc2ccc(OCc3ccc(-c4ccc(Cl)cc4Cl)cc3)cc2)S1 (stereo unspecified)
Data returned: condition met

Data request: hey, is growth for `COC(=O)[C@]1(C)CCC[C@]2(C)[C@H]3C[C@H]4C(C(C)C)=C[C@]3(CC[C@H]21)[C@@H]1C(=O)CC[C@H](OCCC#N)[C@@H]14` lower than 60% or not?
Data returned: condition not met

Data request: Strictly below 60%: is that where growth of `COc1ccc2c(c1)c(-c1nc(-c3c[nH]c4ccncc34)cs1)cn2C` sits?
Data returned: condition met

Data request: Consider the compound Nc1n[nH]c2ccc([C@H]3[C@@H]4C5CCC(C5)[C@@H]4c4c(ccc5[nH]ncc45)N3S(=O)(=O)C3CC3)cc12 (stereo partly specified) . Is its growth strictly less than 60%?
Data returned: condition met

Data request: Does the reported growth of `CCSC(SCC)c1ccc(Cl)cc1` stay below 60%?
Data returned: condition not met

Data request: Say whether its growth is strictly beneath 60%. Entry: `COc1ccc(Nc2ncc(Br)c(NCCCNC(=O)c3cccs3)n2)cc1`
Data returned: condition met

Data request: Say whether its growth is strictly beneath 60%. Entry: `COc1ccc(-c2noc(C(=O)O)c2-c2cc(OC)c(OC)c(OC)c2)cc1`
Data returned: condition met

Data request: Please indicate whether the reported growth of `CCOC(=O)n1cc(-c2nonc2-c2cn(C(=O)OCC)c3ccc(Br)cc23)c2ccccc21` is strictly below 60%.
Data returned: condition not met

Data request: Strictly below 60% in growth? `CC(C)(Sc1cc(C(C)(C)C)c(O)c(C(C)(C)C)c1)Sc1cc(C(C)(C)C)c(OC(=O)CCCC(=O)O)c(C(C)(C)C)c1`
Data returned: condition met
